B1: library; numbered along this chain (parent)
chain: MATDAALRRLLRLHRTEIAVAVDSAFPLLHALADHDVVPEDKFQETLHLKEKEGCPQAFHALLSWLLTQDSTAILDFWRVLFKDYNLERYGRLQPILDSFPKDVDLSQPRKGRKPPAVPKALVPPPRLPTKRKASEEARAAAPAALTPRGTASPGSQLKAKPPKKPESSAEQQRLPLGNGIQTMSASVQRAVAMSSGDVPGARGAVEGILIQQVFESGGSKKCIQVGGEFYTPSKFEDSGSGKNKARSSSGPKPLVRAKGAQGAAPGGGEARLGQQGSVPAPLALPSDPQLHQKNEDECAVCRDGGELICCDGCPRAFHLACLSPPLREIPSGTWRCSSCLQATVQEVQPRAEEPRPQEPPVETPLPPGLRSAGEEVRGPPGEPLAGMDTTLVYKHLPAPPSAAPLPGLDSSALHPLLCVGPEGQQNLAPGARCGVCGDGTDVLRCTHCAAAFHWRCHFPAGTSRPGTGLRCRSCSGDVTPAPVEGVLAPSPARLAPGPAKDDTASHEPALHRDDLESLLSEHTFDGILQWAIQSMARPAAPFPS

- Variants of: B1
- assay.text: AIRE transcriptional activation functional score (insulin promoter-GFP; nonsense median 0, synonymous median 1) (normalised score); higher = higher AIRE activity (more reporter activation)
- cond: with insulin promoter-GFP reporter in HEK293
Record Criterion met whenever AIRE transcriptional activation functional score is at 1 or higher; record Criterion not met when lower.

> print(dat)
    mutant.label     category.label
 1         V484W      Criterion met
 2         E363Y      Criterion met
 3         Q426G  Criterion not met
 4         Q108H  Criterion not met
 5          T46R  Criterion not met
 6         P143S  Criterion not met
 7         L255P      Criterion met
 8         P481A  Criterion not met
 9          K52V      Criterion met
10         A205V  Criterion not met
11         P154N  Criterion not met
12         P148G  Criterion not met
13         A300H  Criterion not met
14         F215R  Criterion not met
15         D410S      Criterion met
16         S220E      Criterion met
17          S99Y  Criterion not met
18         A264E  Criterion not met
19         E375D      Criterion met
20         L392T  Criterion not met
21          V80G  Criterion not met
22         S107L      Criterion met
23         R316Q      Criterion met
24         C223N  Criterion not met
25          D23M  Criterion not met
26         R127V  Criterion not met
27          E53P  Criterion not met
28         E136T  Criterion not met
29          A25H  Criterion not met
30          V22G  Criterion not met
31          L47T  Criterion not met
32         P466F  Criterion not met
33         V393N      Criterion met
